Attribution: the RNAGym collection of RNA variant scans (doi:10.1002/anie.201605470)

Readings of self-cleavage for the listed variants
B1: Osa-1-4 twister ribozyme (parent)
chain: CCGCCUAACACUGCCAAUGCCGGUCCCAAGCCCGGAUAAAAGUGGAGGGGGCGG

# Variants of: B1
# assay name: self-cleavage, relative activity (ratio to wild type); higher = more cleavage; co-transcriptional

Known results for variants:
mutation label | self-cleavage
C52A G44U | 0.93
A38C C15A | 0.31

Consider the record given below.
Record C25A U37C . Reported self-cleavage: 0.14
